In this section, each of the binders is paired with its reported binding, % of WT.
# target-or-test-system: T1, membrane LIGHT S194A (human, UniProt O43557 1-240)
# T1 chain: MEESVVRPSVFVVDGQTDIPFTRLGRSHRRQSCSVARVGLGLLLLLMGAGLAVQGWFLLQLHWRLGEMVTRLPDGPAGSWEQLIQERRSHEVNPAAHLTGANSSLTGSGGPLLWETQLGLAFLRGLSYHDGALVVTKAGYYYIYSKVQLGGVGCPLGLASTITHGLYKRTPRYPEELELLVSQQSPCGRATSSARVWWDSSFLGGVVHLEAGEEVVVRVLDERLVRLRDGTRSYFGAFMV
# protocol: flow cytometry, transfected HEK293FF, mAb at EC50

// known answers, use as guide
response.value for 3D12 (antibody, human IgG4, V domains shown, chimeric: mouse variable domains on human IgG4 HC (S-to-P and L-to-E at 248) and human CL; also called Parental 3D12; 3D12 chimeric) VH: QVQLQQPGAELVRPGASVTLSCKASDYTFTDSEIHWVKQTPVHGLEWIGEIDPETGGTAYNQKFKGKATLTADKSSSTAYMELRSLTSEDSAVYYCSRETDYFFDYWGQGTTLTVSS VL: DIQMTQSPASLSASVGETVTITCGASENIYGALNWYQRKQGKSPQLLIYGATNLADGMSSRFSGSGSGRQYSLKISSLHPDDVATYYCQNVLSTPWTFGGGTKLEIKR (field: binding, % of WT) = 2%

response.value for 3A07 (antibody, human IgG4, V domains shown, chimeric human IgG4 (S-to-P, L-to-E at 248), human CL; also called Parental 3A07) VH: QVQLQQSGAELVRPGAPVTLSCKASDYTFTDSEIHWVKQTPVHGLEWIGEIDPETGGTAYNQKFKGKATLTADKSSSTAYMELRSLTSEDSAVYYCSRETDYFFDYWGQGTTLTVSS VL: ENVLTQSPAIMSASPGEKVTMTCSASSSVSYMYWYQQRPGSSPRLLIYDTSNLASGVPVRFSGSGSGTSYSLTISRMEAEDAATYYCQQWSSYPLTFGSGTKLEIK (field: binding, % of WT) = 1%

response.value for 2B11 (antibody, human IgG4, V domains shown, chimeric human IgG4 (S-to-P, L-to-E at 248), human CL; also called Parental 2B11) VH: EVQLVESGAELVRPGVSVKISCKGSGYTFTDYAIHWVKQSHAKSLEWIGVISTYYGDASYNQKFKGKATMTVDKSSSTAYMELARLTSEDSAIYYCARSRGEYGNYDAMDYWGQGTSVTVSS VL: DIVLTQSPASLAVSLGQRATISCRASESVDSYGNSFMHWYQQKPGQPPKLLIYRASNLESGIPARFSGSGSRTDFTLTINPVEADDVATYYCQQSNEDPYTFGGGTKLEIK (field: binding, % of WT) = 0%

response.value for 2E08 (antibody, human IgG4, V domains shown, chimeric human IgG4 (S-to-P, L-to-E at 248), human CL; also called Parental 2E08) VH: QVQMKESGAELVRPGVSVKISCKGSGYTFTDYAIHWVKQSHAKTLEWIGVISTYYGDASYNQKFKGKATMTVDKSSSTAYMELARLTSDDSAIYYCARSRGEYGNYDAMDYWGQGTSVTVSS VL: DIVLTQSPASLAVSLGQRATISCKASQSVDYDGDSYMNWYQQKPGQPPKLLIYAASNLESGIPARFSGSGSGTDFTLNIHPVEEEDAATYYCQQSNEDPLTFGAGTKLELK (field: binding, % of WT) = 3%

New cases:
response.value for 3E09 (antibody, V domains shown, chimeric human IgG4 (S-to-P, L-to-E at 248), human CL; also called Parental 3E09) VH: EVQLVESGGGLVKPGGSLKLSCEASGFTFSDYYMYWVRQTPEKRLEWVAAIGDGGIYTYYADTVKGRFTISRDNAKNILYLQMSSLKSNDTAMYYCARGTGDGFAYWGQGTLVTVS VL: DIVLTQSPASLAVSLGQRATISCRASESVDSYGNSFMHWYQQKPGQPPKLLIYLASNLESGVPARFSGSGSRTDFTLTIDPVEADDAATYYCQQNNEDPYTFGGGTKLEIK (field: binding, % of WT) = 1%

response.value for 3B04 (antibody, human IgG4, V domains shown, chimeric: mouse variable domains on human IgG4 HC (S-to-P and L-to-E at 248) and human CL; also called Parental 3B04; 3B04 chimeric) VH: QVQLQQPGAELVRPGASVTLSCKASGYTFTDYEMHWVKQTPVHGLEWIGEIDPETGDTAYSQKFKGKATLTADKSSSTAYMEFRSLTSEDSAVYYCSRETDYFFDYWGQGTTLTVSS VL: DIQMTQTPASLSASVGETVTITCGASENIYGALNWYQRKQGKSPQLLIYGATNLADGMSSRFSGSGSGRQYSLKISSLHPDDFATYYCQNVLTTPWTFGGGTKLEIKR (field: binding, % of WT) = 0%

response.value for 3C10 (antibody, human IgG4, V domains shown, chimeric human IgG4 (S-to-P, L-to-E at 248), human CL; also called Parental 3C10) VH: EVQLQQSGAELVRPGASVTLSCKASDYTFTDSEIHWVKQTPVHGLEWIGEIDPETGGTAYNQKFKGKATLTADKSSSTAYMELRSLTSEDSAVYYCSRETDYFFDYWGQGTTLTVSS VL: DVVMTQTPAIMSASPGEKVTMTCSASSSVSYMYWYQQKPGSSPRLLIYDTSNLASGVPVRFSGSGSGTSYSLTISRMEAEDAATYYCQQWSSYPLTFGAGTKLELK (field: binding, % of WT) = 0%
